List of pKd values.
# Experimental System: T1, EsCas13d, nuclease-dead (Eubacterium siraeum, UniProt B0MS50, R295A;H300A;R849A;H854A)
# T1 sequence: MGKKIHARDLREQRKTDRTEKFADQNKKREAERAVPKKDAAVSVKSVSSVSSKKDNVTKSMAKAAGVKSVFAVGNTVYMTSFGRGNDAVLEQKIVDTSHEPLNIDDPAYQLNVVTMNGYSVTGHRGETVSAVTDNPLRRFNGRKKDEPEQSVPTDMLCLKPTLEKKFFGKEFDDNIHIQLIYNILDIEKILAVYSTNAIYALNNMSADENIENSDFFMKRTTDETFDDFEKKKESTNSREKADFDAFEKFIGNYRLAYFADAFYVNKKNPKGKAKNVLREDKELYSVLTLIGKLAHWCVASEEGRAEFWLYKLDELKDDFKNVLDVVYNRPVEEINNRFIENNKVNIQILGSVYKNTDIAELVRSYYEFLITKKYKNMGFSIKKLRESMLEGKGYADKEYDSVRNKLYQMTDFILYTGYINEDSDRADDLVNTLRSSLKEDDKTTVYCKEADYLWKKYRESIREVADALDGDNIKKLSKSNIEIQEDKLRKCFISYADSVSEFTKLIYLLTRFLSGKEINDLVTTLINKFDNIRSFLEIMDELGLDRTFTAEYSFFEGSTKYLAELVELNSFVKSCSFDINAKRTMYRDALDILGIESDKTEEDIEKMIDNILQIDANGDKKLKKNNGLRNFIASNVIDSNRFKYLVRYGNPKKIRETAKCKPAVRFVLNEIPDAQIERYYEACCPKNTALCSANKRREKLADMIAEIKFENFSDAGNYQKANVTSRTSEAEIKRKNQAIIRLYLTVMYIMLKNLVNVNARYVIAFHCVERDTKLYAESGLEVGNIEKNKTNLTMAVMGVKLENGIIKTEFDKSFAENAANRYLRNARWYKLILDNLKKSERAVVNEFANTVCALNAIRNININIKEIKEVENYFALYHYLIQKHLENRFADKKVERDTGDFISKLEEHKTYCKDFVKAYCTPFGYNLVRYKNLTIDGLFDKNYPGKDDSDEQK
# Assay Remarks: crRNA (strand 1, pre-loaded); Mg2+; 40 mM Tris-HCl pH 7.5, 150 mM NaCl, 6 mM MgCl2, 1 mM DTT, 0.1% Tween-20, 0.2 mg/ml BSA; 25 C; 10 min per concentration, then washed
# Assay Setup: tags: His6-TwinStrep-SUMO cleaved; N-terminal SNAP kept (SNAP-Surface 488); label: 3' end held by stalled T7 RNA polymerase
pKd here: minus log base 10 of the concentration, concentration in moles per litre.

Examples with their reported pKd follow.
target 2 MT 5'PFS UUA 3'PFS CUU (mixed) RNA 1: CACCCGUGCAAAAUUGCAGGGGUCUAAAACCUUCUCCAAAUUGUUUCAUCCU RNA 2: GGGAAUGGAUCCACAUCUACGAAUUCUUAAGGAUGAAACAAUUUGGAGAAGCUUAGAUCGGAAGAGCACACGU    7.44
target 1 insU 3' of 22,insC 3' of 5 (mixed) RNA 1: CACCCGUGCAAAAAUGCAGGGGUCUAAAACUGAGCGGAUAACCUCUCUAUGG RNA 2: GGGAAUGGAUCCACAUCUACGAAUUCGUACUCAUAGAGAGGUUAUCCGCCUCACCGAGAUCGGAAGAGCACACGU    7.00
target 1 G5C,C6A (mixed) RNA 1: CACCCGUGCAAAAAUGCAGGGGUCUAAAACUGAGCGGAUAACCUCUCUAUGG RNA 2: GGGAAUGGAUCCACAUCUACGAAUUCGUACCAUAGAGAGGUUAUCACCUCACCGAGAUCGGAAGAGCACACGU    7.95

Next item in the queue.
Ask: Report pKd for target 1 MT 5'PFS GCG 3'PFS AGG (mixed) RNA 1: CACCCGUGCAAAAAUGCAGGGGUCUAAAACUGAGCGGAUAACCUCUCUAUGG RNA 2: GGGAAUGGAUCCACAUCUACGAAUUCGCGCCAUAGAGAGGUUAUCCGCUCAAGGAGAUCGGAAGAGCACACGU please.
Reply: 7.00
